Below: a set of entries, each annotated with reported inhibition.
# experimental details: Vibrio cholerae motility inhibitors, OD read-out (AID 588778)
# measurement parameters: measured here: bacterial viability at 10 ug/mL, stronger effect = higher value
Screen size: about 10,000 compounds; fewer than 10 were called active. The list is a sample of the results.
Answer in %, number only, no unit symbol.

>  <compound>
COc1ccc(-c2csc3ncnc(SCc4c(C)noc4C)c23)cc1

>  <result value>
4.67

$$$$
>  <compound>
CCOc1cc2c(cc1OCC)C(c1ccc(OC)c(OC)c1)N(c1ccc(C(=O)O)cc1)C(=O)C2 (centres undefined)

>  <result value>
-1.54

$$$$
>  <compound>
O=C(Cc1ccccc1Cl)c1ccc(O)c(O)c1O

>  <result value>
2.63

$$$$

Which inhibition is listed for CCc1[nH]nc2c1C1(CN3CCC1CC3)C(C#N)=C(N)O2 (centres undefined) ?
-0.3

Also check COc1cc(SC)ccc1C(=O)Nc1cccc(C(F)(F)F)c1
-4.94

Now this one: O=C(CCC(=O)Nc1ccccc1Cl)NNC(=O)Nc1ccc(F)cc1F
-8.28

Same question for S=C(NCc1ccc(Cl)cc1)N1CCC2(CC1)OCCO2 please.
-3.96

O=C(Oc1ccccn1)C1COc2ccccc2O1 (centres undefined) , same question.
-1.04

Now this one: Cn1cnnc1SCC(=O)Nc1ccccn1
31.7

Taken from PubChem BioAssay AID588778.
